Data provenance is patent US20240024426A1.

ASSAY TARGET: human GLP-1 receptor (human, UniProt P43220 24-463)
PROCEDURE DETAILS: cell-based or functional assay
Bridges are numbered along the chain shown (N, C = ends). Where no end group is shown, it is not given here. [ ]: non-standard residue; d: D form. The star is where a group is joined. Acetyl(2-(4-imidazolyl)) = O=C(Cc1c[nH]cn1)*; Aib = CC(C)(N)C(=O)O
REPORTED METRIC: In vitro activity compared with native peptide (%) vs. GLP-1

* H[Aib]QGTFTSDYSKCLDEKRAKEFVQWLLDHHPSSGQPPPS (bridge 16-20) [Triple agonist of SEQ ID NO: 65] | 95.4
* {Acetyl(2-(4-imidazolyl))}-[Aib]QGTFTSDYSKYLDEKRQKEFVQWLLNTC (bridge 15-19) [Triple agonist of SEQ ID NO: 81] | 7.8
* H[Aib]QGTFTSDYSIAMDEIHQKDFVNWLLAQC (bridge 16-20) [Triple agonist of SEQ ID NO: 55] | 27.1
* H[Aib]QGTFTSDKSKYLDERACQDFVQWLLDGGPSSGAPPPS [Triple agonist of SEQ ID NO: 40] | 75.2
* H[Aib]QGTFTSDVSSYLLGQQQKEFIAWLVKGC [Triple agonist of SEQ ID NO: 4] | 8.5
* {Acetyl(2-(4-imidazolyl))}-[Aib]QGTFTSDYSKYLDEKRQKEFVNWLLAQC (bridge 15-19) [Triple agonist of SEQ ID NO: 86] | 28.4
* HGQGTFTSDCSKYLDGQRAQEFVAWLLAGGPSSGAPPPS [Triple agonist of SEQ ID NO: 47] | 2.4
* Y[Aib]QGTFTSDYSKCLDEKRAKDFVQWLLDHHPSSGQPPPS (bridge 16-20) [Triple agonist of SEQ ID NO: 70] | 15.1
* {Acetyl(2-(4-imidazolyl))}-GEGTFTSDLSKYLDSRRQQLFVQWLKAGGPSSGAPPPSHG [Triple agonist of SEQ ID NO: 11] | 1.4
* H[Aib]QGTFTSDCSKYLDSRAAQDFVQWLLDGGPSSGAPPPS [Triple agonist of SEQ ID NO: 26] | 64.5
* {Acetyl(2-(4-imidazolyl))}-[Aib]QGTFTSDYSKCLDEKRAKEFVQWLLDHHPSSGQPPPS (bridge 15-19) [Triple agonist of SEQ ID NO: 74] | 12.9
* {Acetyl(2-(4-imidazolyl))}-[Aib]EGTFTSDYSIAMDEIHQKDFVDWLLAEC (bridge 15-19) [Triple agonist of SEQ ID NO: 84] | 4.2
* Y[Aib]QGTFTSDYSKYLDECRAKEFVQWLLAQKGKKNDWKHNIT (bridge 16-20) [Triple agonist of SEQ ID NO: 23] | 4.01
* H[Aib]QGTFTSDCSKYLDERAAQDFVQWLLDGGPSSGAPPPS [Triple agonist of SEQ ID NO: 25] | 82.6
* {Acetyl(2-(4-imidazolyl))}-[Aib]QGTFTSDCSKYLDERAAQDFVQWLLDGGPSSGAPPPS [Triple agonist of SEQ ID NO: 63] | 15.3
* Y[Aib]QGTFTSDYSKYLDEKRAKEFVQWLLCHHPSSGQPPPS (bridge 16-20) [Triple agonist of SEQ ID NO: 95] | 2.1
* H[Aib]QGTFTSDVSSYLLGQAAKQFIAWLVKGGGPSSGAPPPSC [Triple agonist of SEQ ID NO: 3] | 1.8
* H[Aib]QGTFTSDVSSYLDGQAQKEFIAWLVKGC [Triple agonist of SEQ ID NO: 2] | 5.9
* Y[Aib]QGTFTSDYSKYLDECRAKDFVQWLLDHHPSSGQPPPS (bridge 16-20) [Triple agonist of SEQ ID NO: 66] | 15.8
* H[Aib]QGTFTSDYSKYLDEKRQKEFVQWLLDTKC (bridge 16-20) [Triple agonist of SEQ ID NO: 78] | 51
* Y[Aib]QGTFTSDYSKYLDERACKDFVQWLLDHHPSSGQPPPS (bridge 16-20) [Triple agonist of SEQ ID NO: 71] | 90.1
* {Acetyl(2-(4-imidazolyl))}-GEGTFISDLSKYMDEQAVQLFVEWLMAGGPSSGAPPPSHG [Triple agonist of SEQ ID NO: 12] | 0.4
